Tested on: mice bearing PSMA-expressing LNCAP cancer xenografts
Experiment: Biodistribution of 68Ga-labeled compounds
Type: in vivo
Details: 3 h post-injection
Reported Tumor:Muscle ratio values for a set of compounds

Nc1ccc(CCCC(=O)NCC(=O)N[C@@H](CCCCNC(=O)CN2CCN(CC(=O)[O-])CCN(CC(=O)[O-])CCN(CC(=O)[O-])CC2)C(=O)NC[C@H]2CC[C@H](C(=O)N[C@@H](Cc3ccc4ccccc4c3)C(=O)NCCCC[C@H](NC(=O)N[C@@H](CCC(=O)O)C(=O)O)C(=O)O)CC2)cc1.[68Ga+3] [^68Ga-HTK03087]: 254 ± 88.9

Request: Note down Tumor:Muscle ratio recorded for O=C([O-])CN1CCN(CC(=O)[O-])CCN(CC(=O)NCCCC[C@H](NC(=O)CNC(=O)CCCc2ccc([N+](=O)[O-])cc2)C(=O)NC[C@H]2CC[C@H](C(=O)N[C@@H](Cc3ccc4ccccc4c3)C(=O)NCCCC[C@H](NC(=O)N[C@@H](CCC(=O)O)C(=O)O)C(=O)O)CC2)CCN(CC(=O)[O-])CC1.[68Ga+3] [^68Ga-HTK03089]
Response: 108 ± 13.6

###

Salivary uptake: recorded values
Tested on: mice bearing PSMA-expressing LNCAP cancer xenografts
Experiment: Biodistribution of 68Ga-labeled compounds
Format: in vivo
Details: 3 h post-injection
Output spec: scalar in % ID/g, unitless text.

Request: Read off the recorded Salivary uptake for O=C([O-])CN1CCN(CC(=O)[O-])CCN(CC(=O)NCC2CCC(C(=O)NC(Cc3c4ccccc4cc4ccccc34)C(=O)NCCCCC(NC(=O)NC(CCC(=O)O)C(=O)O)C(=O)O)CC2)CCN(CC(=O)[O-])CC1.[68Ga+3] (stereo not shown) [^68Ga-HTK03041]
Response: 2.11

Request: Please report the measured Salivary uptake for O=C([O-])CN1CCN(CC(=O)[O-])CCN(CC(=O)NCCCC[C@H](NC(=O)CNC(=O)CCCc2ccc(Cl)cc2)C(=O)NC[C@H]2CC[C@H](C(=O)N[C@@H](Cc3ccc4ccccc4c3)C(=O)NCCCC[C@H](NC(=O)N[C@@H](CCC(=O)O)C(=O)O)C(=O)O)CC2)CCN(CC(=O)[O-])CC1.[68Ga+3] [^68Ga-HTK03055]
Response: 3.57

Request: Assign Salivary uptake to the following record: O=C([O-])CN1CCN(CC(=O)[O-])CCN(CC(=O)NCCCC[C@H](NC(=O)CNC(=O)CCCc2ccc(F)cc2)C(=O)NC[C@H]2CC[C@H](C(=O)N[C@@H](Cc3ccc4ccccc4c3)C(=O)NCCCC[C@H](NC(=O)N[C@@H](CCC(=O)O)C(=O)O)C(=O)O)CC2)CCN(CC(=O)[O-])CC1.[68Ga+3] [^68Ga-HTK03085]
Response: 1.03

Request: Quickly give me recorded Salivary uptake for O=C([O-])CN1CCN(CC(=O)[O-])CCN(CC(=O)NCCCC[C@H](NC(=O)CNC(=O)CCc2ccccc2)C(=O)NC[C@H]2CC[C@H](C(=O)N[C@@H](Cc3ccc4ccccc4c3)C(=O)NCCCC[C@H](NC(=O)N[C@@H](CCC(=O)O)C(=O)O)C(=O)O)CC2)CCN(CC(=O)[O-])CC1.[68Ga+3] [^68Ga-HTK03082]
Response: 0.20
